Test system: COLO 205
Experiment: Cytotoxicity against human COLO 205 cells assessed as inhibition of cell proliferation incubated for 4 hrs by MTS assay
Format: functional, cell-based
Conditions: COLO 205, 4 h
Where a SMILES comes first, the peptide text is derived from it. [ ]: non-standard residue; d: D form. ξ: configuration not given here. Bip = N[C@@H](Cc1ccc(-c2ccccc2)cc1)C(=O)O; ξBip = NC(Cc1ccc(-c2ccccc2)cc1)C(=O)O; ξDip = NC(C(=O)O)C(c1ccccc1)c1ccccc1
Property name: IC50
Remember to quote the unit after the number.

Sample answers from the record:
1. NCCCC[C@H](NC(=O)[C@H](Cc1c[nH]c2ccccc12)NC(=O)[C@H](Cc1c[nH]c2ccccc12)NC(=O)[C@H](CCCCN)NC(=O)[C@H](CCCCN)NC(=O)[C@H](Cc1c[nH]c2ccccc12)NC(=O)[C@H](Cc1ccc(-c2ccccc2)cc1)NC(=O)[C@H](CCCCN)NC(=O)[C@@H](N)CCCCN)C(N)=O (H-KK[Bip]WKKWWK-NH2); 5.7 µM
2. N=C(N)NCCC[C@H](NC(=O)[C@H](Cc1c[nH]c2ccccc12)NC(=O)[C@H](Cc1c[nH]c2ccccc12)NC(=O)[C@H](CCCNC(=N)N)NC(=O)[C@H](CCCNC(=N)N)NC(=O)C(NC(=O)[C@H](Cc1c[nH]c2ccccc12)NC(=O)[C@H](CCCNC(=N)N)NC(=O)[C@@H](N)CCCNC(=N)N)C(c1ccccc1)c1ccccc1)C(N)=O (stereo not given in full) (H-RRW[ξDip]RRWWR-NH2); 6.7 µM
3. NCCCC[C@H](NC(=O)[C@H](Cc1c[nH]c2ccccc12)NC(=O)[C@H](CCCCN)NC(=O)[C@H](CCCCN)NC(=O)C(NC(=O)[C@H](Cc1c[nH]c2ccccc12)NC(=O)[C@H](CCCCN)NC(=O)[C@H](CCCCN)NC(=O)[C@@H](N)Cc1c[nH]c2ccccc12)C(c1ccccc1)c1ccccc1)C(N)=O (stereo not given in full) (H-WKKW[ξDip]KKWK-NH2); 8.7 µM
4. NCCCC[C@H](NC(=O)C(NC(=O)[C@H](Cc1c[nH]c2ccccc12)NC(=O)[C@H](CCCCN)NC(=O)[C@H](CCCCN)NC(=O)[C@H](Cc1c[nH]c2ccccc12)NC(=O)[C@H](Cc1c[nH]c2ccccc12)NC(=O)[C@H](CCCCN)NC(=O)[C@@H](N)CCCCN)C(c1ccccc1)c1ccccc1)C(N)=O (stereo not given in full) (H-KKWWKKW[ξDip]K-NH2); 2.6 µM

// moving on: another record for IC50
Problem: Give the measured IC50 for NCCCC[C@H](NC(=O)[C@H](Cc1c[nH]c2ccccc12)NC(=O)[C@H](Cc1c[nH]c2ccccc12)NC(=O)[C@H](CCCCN)NC(=O)[C@H](CCCCN)NC(=O)[C@H](Cc1c[nH]c2ccccc12)NC(=O)C(Cc1ccc(-c2ccccc2)cc1)NC(=O)[C@H](CCCCN)NC(=O)[C@@H](N)CCCCN)C(N)=O (stereo not given in full) (H-KK[ξBip]WKKWWK-NH2)
Solution: 4.9 µM
